Just for reference, patent US8163909B2 is where these values come from.

ASSAY METHOD TEXT: Microsomal stability assay, human liver microsomes;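 note: pooled human liver microsomes at 0.25 mg/mL with 1 µM compound and NADPH at 37 °C, pH 7.4, for 30 min, unchanged parent quantified by LC-MS/MS against the 0 min sample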
MEASUREMENT SETUP: human liver microsomal data
Mark condition met only for HLM values smaller than 200 µL/min/mg; exact matches and larger values are condition not met.

compound=C#Cc1cc(C[C@H](NC(=O)C(OC)OC)[C@H](O)CN[C@H]2CC3(CCC3)Oc3ncc(CC(C)(C)C)cc32)ccc1F qualitative_label="condition met"
compound=COCC(=O)N[C@@H](Cc1ccc2c(c1)OCO2)[C@H](O)CN[C@H]1CC2(CCC2)Oc2ncc(CCC(F)(F)F)cc21 qualitative_label="condition met"
compound=CO[C@H](C)C(=O)N[C@@H](Cc1cc(F)cc(-c2nccs2)c1)[C@H](O)CN[C@H]1CC2(CCC2)Oc2ncc(Br)cc21 qualitative_label="condition met"
compound=COCC(=O)N[C@@H](Cc1ccc(-c2nccs2)cc1)[C@H](O)CN[C@H]1CC2(CCC2)Oc2ncc(CC(C)C)cc21 qualitative_label="condition met"
compound=COCC(=O)N[C@@H](Cc1ccc(-c2nccs2)c(F)c1)[C@H](O)CN[C@H]1CC2(CCC2)Oc2ncc(CC(C)C)cc21 qualitative_label="condition met"
compound=COCC(=O)N[C@@H](Cc1cc(F)cc(-c2nccs2)c1)[C@H](O)CN[C@]1(C)CC2(CCC2)Oc2ncc(CC(C)(C)C)cc21 qualitative_label="condition met"
compound=COCC(=O)N[C@@H](Cc1ccc2c(c1)OCO2)[C@H]1CN([C@H]2CC3(CCC3)Oc3ncc([C@H](F)C(C)(C)C)cc32)C(=O)O1 qualitative_label="condition met"
compound=CC(C)(C)Cc1cnc2c(c1)[C@@H](NC[C@@H](O)[C@H](Cc1ccc(F)cc1)NC(=O)[C@@H]1CN(Cc3nccs3)CCO1)CC1(CCC1)O2 qualitative_label="condition not met"
compound=COCC(=O)N[C@@H](Cc1cc(F)cc(Cl)c1)[C@H](O)CN[C@H]1CC2(CCC2)Oc2ncc(CC(C)(F)F)cc21 qualitative_label="condition not met"
compound=CO[C@H](C)C(=O)N[C@@H](Cc1ccc2c(c1)OCO2)[C@H](O)CN[C@H]1CC2(CCC2)Oc2c1cc(CC(C)(C)C)nc2N(C)C qualitative_label="condition not met"
compound=CC(C)Cc1cnc2c(c1)[C@@H](NC[C@H](O)[C@@H](Cc1cccc(-c3nccs3)c1)NC(=O)[C@H]1CCCO1)CC1(CCC1)O2 qualitative_label="condition met"
compound=Cc1nc(CN2CCO[C@@H](C(=O)N[C@@H](Cc3ccc(F)cc3)[C@H](O)CN[C@H]3CC4(CCC4)Oc4ncc(CC(C)(C)C)cc43)C2)cs1 qualitative_label="condition not met"
compound=COCC(=O)N[C@@H](Cc1cccc(F)c1)[C@H](O)CN[C@@H]1CC2(CCC2)Oc2c1cc(CC(C)(C)C)nc2-n1ccnc1 qualitative_label="condition met"
compound=C#Cc1ccc(F)c(C[C@H](NC(=O)[C@@H](C)OC)[C@H](O)CN[C@H]2CC3(CCC3)Oc3ncc(CC(C)(C)C)cc32)c1 qualitative_label="condition met"
compound=CC(=O)N[C@@H](Cc1cc(F)cc(F)c1)[C@H](O)CN[C@H]1CC2(CCC2)Oc2c1cc(CC(C)(C)C)nc2-c1cncs1 qualitative_label="condition met"
compound=COCC(=O)N[C@@H](Cc1ccccc1)[C@H](O)CN[C@H]1CC2(CCC2)Oc2c(Br)cc(CC(C)C)cc21 qualitative_label="condition not met"
compound=COCC(=O)N[C@@H](Cc1cc(F)cc(-c2nccs2)c1)[C@H](O)CN[C@H]1CC2(CCC2)Oc2ccc(CC(C)C)cc21 qualitative_label="condition met"
compound=C#Cc1cccc(C[C@H](NC(=O)C(OC)OC)[C@H](O)CN[C@H]2CC3(CCC3)Oc3ncc(CC(C)(C)C)cc32)c1 qualitative_label="condition met"
compound=CCO[C@H](C)C(=O)N[C@@H](Cc1ccc2c(c1)OCO2)[C@H](O)CN[C@H]1CC2(CCC2)Oc2ncc(CC(C)(C)C)cc21 qualitative_label="condition met"
compound="C#Cc1cccc(C[C@H](NC(=O)COC)[C@H](O)CN[C@H]2C[C@@]3(CCOC3)Oc3ncc(CC(C)(C)C)cc32)c1 [compound 825]" qualitative_label="condition met"
compound=COCC(=O)N[C@@H](Cc1ccccc1)[C@H](O)CN[C@H]1CC2(CCC2)Oc2c1cc(CC(C)C)cc2-n1ccnc1 qualitative_label="condition met"
compound=COCC(=O)N[C@@H](Cc1cccc(F)c1)[C@H](O)CN[C@H]1CC2(CCC2)Oc2c(-c3cscn3)cc(CC(C)C)cc21 qualitative_label="condition not met"
compound=COC(OC)C(=O)N[C@@H](Cc1cccc(C#N)c1)[C@H](O)CN[C@H]1CC2(CCC2)Oc2ncc(CC(C)(C)C)cc21 qualitative_label="condition not met"
compound=CC(C)(C)Cc1cnc2c(c1)[C@@H](NC[C@@H](O)[C@H](Cc1ccc3c(c1)OCO3)NC(=O)C(C)(C)C)CC1(CCC1)O2 qualitative_label="condition met"
compound=CC(=O)N[C@@H](Cc1ccc(F)cc1)[C@H](O)CN[C@H]1CC2(CCC2)Oc2c1cc(CC(C)(C)C)nc2N1CCOCC1 qualitative_label="condition not met"
